Experiment: Tissue distribution of TET after a single i.t. administration in normal and LPS-treated mice
Conditions: BALB/c, mouse, brain, inhaled or intranasal, 15 mg/kg, Cmax, LPS-treated mice; 15 mg/kg i.t.

compound	Cmax / ng/mL
COc1ccc2cc1Oc1ccc(cc1)C[C@H]1c3cc(c(OC)cc3CCN1C)Oc1c(OC)c(OC)cc3c1[C@H](C2)N(C)CC3 [TET, Tetrandrine]	6430

---

Assay: Tissue distribution of TET after a single i.t. administration in normal and LPS-treated mice
Conditions: BALB/c, mouse, muscle, inhaled or intranasal, 15 mg/kg, t1/2, LPS-treated mice; 15 mg/kg i.t.
Procedure: The different tissue distribution characteristics of TET in normal and pneumonia model mice via i.t. delivery were investigated. Thirty BALB/c mice were randomly divided into ten groups (n = 3 for each group). […] Pharmacokinetic parameters including t1/2, AUC(0-t), AUC(0-∞), and MRT were calculated using WinNonlin 7.0 (Pharsight, CA) by the non-compartmental model. […] Blood clearance (CL) was calculated as the i.v. dose divided by AUCinf. […]
measure: half-life (h)

compound	endpoint_result
COc1ccc2cc1Oc1ccc(cc1)C[C@H]1c3cc(c(OC)cc3CCN1C)Oc1c(OC)c(OC)cc3c1[C@H](C2)N(C)CC3 [TET, Tetrandrine]	78.8

---

Assay: Tissue distribution of TET after a single i.t. administration in normal and LPS-treated mice
Settings: BALB/c, mouse, stomach, inhaled or intranasal, 15 mg/kg, Tmax, normal mice; 15 mg/kg i.t.

chemical_structure	Tmax / h
COc1ccc2cc1Oc1ccc(cc1)C[C@H]1c3cc(c(OC)cc3CCN1C)Oc1c(OC)c(OC)cc3c1[C@H](C2)N(C)CC3	4.67

---

Experiment: Tissue distribution of TET after a single i.t. administration in normal and LPS-treated mice
Settings: BALB/c, mouse, heart, inhaled or intranasal, 15 mg/kg, t1/2, LPS-treated mice; 15 mg/kg i.t.
measure: half-life (days)

molecule	measure	endpoint_result
COc1ccc2cc1Oc1ccc(cc1)C[C@H]1c3cc(c(OC)cc3CCN1C)Oc1c(OC)c(OC)cc3c1[C@H](C2)N(C)CC3 [TET, Tetrandrine]	half-life	18.7

---

Assay: Tissue distribution of TET after a single i.t. administration in normal and LPS-treated mice
Details: BALB/c, mouse, in vivo, inhaled or intranasal, 15 mg/kg, AUC(0-t), normal mice; 15 mg/kg i.t.; spleen

compound	AUC(0-t) (µg·h/mL)
COc1ccc2cc1Oc1ccc(cc1)C[C@H]1c3cc(c(OC)cc3CCN1C)Oc1c(OC)c(OC)cc3c1[C@H](C2)N(C)CC3 [TET, Tetrandrine]	7940

---

Experiment: Tissue distribution of TET after a single i.t. administration in normal and LPS-treated mice
Conditions: BALB/c, mouse, blood, other: intratracheal (i.t.), 15 mg/kg, Kp (AUC in tissue divided by AUC in blood), LPS-treated mice; 15 mg/kg i.t.; blood
Method: The different tissue distribution characteristics of TET in normal and pneumonia model mice via i.t. delivery were investigated. Thirty BALB/c mice were randomly divided into ten groups (n = 3 for each group). […] Pharmacokinetic parameters including t1/2, AUC(0-t), AUC(0-∞), and MRT were calculated using WinNonlin 7.0 (Pharsight, CA) by the non-compartmental model. […] Blood clearance (CL) was calculated as the i.v. dose divided by AUCinf. […]
measure: Kp

molecule	endpoint_result
COc1ccc2cc1Oc1ccc(cc1)C[C@H]1c3cc(c(OC)cc3CCN1C)Oc1c(OC)c(OC)cc3c1[C@H](C2)N(C)CC3 [TET, Tetrandrine]	1

---

Assay: Metabolic stability of TET in NADPH-supplemented liver microsomes from normal and LPS-induced ALI mice
Type: in vitro ADME, mouse
Settings: mouse, microsomes, pH 7.4, normal mice liver microsomes, 1.0 µM TET, 0.5 mg/mL protein, 37 °C, read-out: In vitro t1/2

compound	half-life at 1 µM, min
COc1ccc2cc1Oc1ccc(cc1)C[C@H]1c3cc(c(OC)cc3CCN1C)Oc1c(OC)c(OC)cc3c1[C@H](C2)N(C)CC3 [TET, Tetrandrine]	52.8

---

Assay: Tissue distribution of TET after a single i.t. administration in normal and LPS-treated mice
Conditions: BALB/c, mouse, spleen, inhaled or intranasal, 15 mg/kg, Tmax, normal mice; 15 mg/kg i.t.
Method: The different tissue distribution characteristics of TET in normal and pneumonia model mice via i.t. delivery were investigated. Thirty BALB/c mice were randomly divided into ten groups (n = 3 for each group). […] Pharmacokinetic parameters including t1/2, AUC(0-t), AUC(0-∞), and MRT were calculated using WinNonlin 7.0 (Pharsight, CA) by the non-compartmental model. […] Blood clearance (CL) was calculated as the i.v. dose divided by AUCinf. […]
measure: Tmax (h)

chemical_structure	measure	reading_unit	endpoint_result
COc1ccc2cc1Oc1ccc(cc1)C[C@H]1c3cc(c(OC)cc3CCN1C)Oc1c(OC)c(OC)cc3c1[C@H](C2)N(C)CC3	Tmax	h	12

---

Assay: Tissue distribution of TET after a single i.t. administration in normal and LPS-treated mice
Details: BALB/c, mouse, muscle, inhaled or intranasal, 15 mg/kg, AUC(0-∞), normal mice; 15 mg/kg i.t.
Protocol: The different tissue distribution characteristics of TET in normal and pneumonia model mice via i.t. delivery were investigated. Thirty BALB/c mice were randomly divided into ten groups (n = 3 for each group). […] Pharmacokinetic parameters including t1/2, AUC(0-t), AUC(0-∞), and MRT were calculated using WinNonlin 7.0 (Pharsight, CA) by the non-compartmental model. […] Blood clearance (CL) was calculated as the i.v. dose divided by AUCinf. […]

compound	reading_unit	AUC(0-inf)
COc1ccc2cc1Oc1ccc(cc1)C[C@H]1c3cc(c(OC)cc3CCN1C)Oc1c(OC)c(OC)cc3c1[C@H](C2)N(C)CC3 [TET, Tetrandrine]	µg·h/mL	410

---

Test: Tissue distribution of TET after a single i.t. administration in normal and LPS-treated mice
Conditions: BALB/c, mouse, adipose, inhaled or intranasal, 15 mg/kg, t1/2, normal mice; 15 mg/kg i.t.

compound	half-life / h
COc1ccc2cc1Oc1ccc(cc1)C[C@H]1c3cc(c(OC)cc3CCN1C)Oc1c(OC)c(OC)cc3c1[C@H](C2)N(C)CC3 [TET, Tetrandrine]	54

---

Experiment: Tissue distribution of TET after a single i.t. administration in normal and LPS-treated mice
Conditions: BALB/c, mouse, stomach, inhaled or intranasal, 15 mg/kg, MRT, LPS-treated mice; 15 mg/kg i.t.

compound	reading_unit	MRT
COc1ccc2cc1Oc1ccc(cc1)C[C@H]1c3cc(c(OC)cc3CCN1C)Oc1c(OC)c(OC)cc3c1[C@H](C2)N(C)CC3 [TET, Tetrandrine]	h	73.3

---

Assay: Tissue distribution of TET after a single i.t. administration in normal and LPS-treated mice
Settings: BALB/c, mouse, brain / blood, other: intratracheal (i.t.), 15 mg/kg, Kp (AUC in tissue divided by AUC in blood), normal mice; 15 mg/kg i.t.; brain

chemical_structure	Kp
COc1ccc2cc1Oc1ccc(cc1)C[C@H]1c3cc(c(OC)cc3CCN1C)Oc1c(OC)c(OC)cc3c1[C@H](C2)N(C)CC3	1

---

Assay: Tissue distribution of TET after a single i.t. administration in normal and LPS-treated mice
Details: BALB/c, mouse, in vivo, inhaled or intranasal, 15 mg/kg, AUC(0-t), normal mice; 15 mg/kg i.t.; intestine
measure: AUC(0-t) (µg·h/mL)

chemical_structure	measure	reading_unit	endpoint_result
COc1ccc2cc1Oc1ccc(cc1)C[C@H]1c3cc(c(OC)cc3CCN1C)Oc1c(OC)c(OC)cc3c1[C@H](C2)N(C)CC3	AUC(0-t)	µg·h/mL	1460

---

Assay: Tissue distribution of TET after a single i.t. administration in normal and LPS-treated mice
Settings: BALB/c, mouse, brain, inhaled or intranasal, 15 mg/kg, MRT, LPS-treated mice; 15 mg/kg i.t.

compound	reading_unit	MRT
COc1ccc2cc1Oc1ccc(cc1)C[C@H]1c3cc(c(OC)cc3CCN1C)Oc1c(OC)c(OC)cc3c1[C@H](C2)N(C)CC3 [TET, Tetrandrine]	h	112

---

Experiment: Tissue distribution of TET after a single i.t. administration in normal and LPS-treated mice
Conditions: BALB/c, mouse, in vivo, inhaled or intranasal, 15 mg/kg, AUC(0-t), normal mice; 15 mg/kg i.t.; brain

chemical_structure	AUC(0-t) / µg·h/mL
COc1ccc2cc1Oc1ccc(cc1)C[C@H]1c3cc(c(OC)cc3CCN1C)Oc1c(OC)c(OC)cc3c1[C@H](C2)N(C)CC3	168

---

Test: Tissue distribution of TET after a single i.t. administration in normal and LPS-treated mice
Conditions: BALB/c, mouse, brain, inhaled or intranasal, 15 mg/kg, t1/2, normal mice; 15 mg/kg i.t.

chemical_structure	half-life
COc1ccc2cc1Oc1ccc(cc1)C[C@H]1c3cc(c(OC)cc3CCN1C)Oc1c(OC)c(OC)cc3c1[C@H](C2)N(C)CC3	51.6 h
